test system: RXF 393 renal; test: NCI-60 one-dose screen, 48 h; conditions: 10 µM unless noted
This is part of a sample that, as a whole, favours compounds with a hit. Of some 83,000 tested, about 20% had one in any assay. Active and inactive are the calls of the source. Rule for the calls: active = growth percent below 10; inactive = the rest.
Return exactly one item of yes = active, no = inactive

CNC(=O)c1cc(-c2ccc(NC(=O)Nc3ccc(N4CCOCC4)c(C(F)(F)F)c3)cc2)nc2cccnc12; yes
Clc1ccc2c(NCCCn3ccnc3)c3oc4ccccc4c3nc2c1; no
CCN1C(=S)N(CC)C2C1N=C(SC)N2/N=C/C=C/c1ccccc1[N+](=O)[O-] (stereo not given); no
C=CCSc1ccc2c(c1)C(N1CCNCC1)=Nc1ccccc1O2; no
C#Cc1nc(C2=C(C)/C(=N/OCc3ccccc3)CC2)cs1; no

Prompt: Field: outcome | Entry: C#Cc1nc(C2=C(C)C(O)/C(=N/O)C2)cs1 (stereo not given)
Response: no

Prompt: Field: outcome | Entry: `Cc1c(NC(=O)CSc2nc3sc4c(c3c(=O)n2-c2ccc(Cl)cc2)CCCC4)c(=O)n(-c2ccccc2)n1C`
Response: no

Prompt: Field: outcome | Entry: `COc1cc(N=Cc2sc(Nc3nccs3)nc2O)cc(OC)c1OC`
Response: no

Prompt: Field: outcome | Entry: `CSc1ccc2c(c1)N(C(=O)/C(C#N)=C/c1c[nH]c3ccccc13)c1ccccc1S2`
Response: no

* * *

Test system: NCI-H460 lung
Test: NCI-60 one-dose screen, 48 h (100 = growth as untreated, 0 = no growth, -100 = all killed)
Settings: 10 µM unless noted
Protocol: Growth inhibition of the NCI-H460 human Non-Small Cell Lung tumor cell line is measured as a screen for anti-cancer activity. Cells are grown in 96 well plates and exposed to the test compound for 48 hours. Compounds are tested at a single concentration, which is 10^-5 M for most compounds. The reported endpoint is percent growth (GI% or GIPRCNT), where numbers from 0 - 100% represent growth inhibition, and numbers from -100% - 0 represent cell death. […]
About 83,000 compounds went through this panel and 20% of them were active in at least one assay; those are over-represented in the sample as a whole.
# maps each entry to its growth
Write the value in % as a bare number.

Solved cases below.
Cn1ccnc1C(=O)/C=C/c1ccc(NC(=O)Nc2ccccc2)cc1; -56.7
CN(C)c1ccc(/C=C2\Cc3c(F)ccc(Br)c3C2=O)cc1; 88.7
CCOc1ccc([C@H]2C(C(=O)c3ccc(Cl)cc3)C3(N[C@@H]2c2ccccc2)C(=O)Nc2ccc(Br)cc23)cc1 (some centres undefined); 2.83
[Cl][Ru].c1ccc(-c2cc(-c3ccccn3)nc(-c3ccccn3)c2)cc1.c1ccc(-c2ccnc3c2ccc2c(-c4ccccc4)ccnc23)cc1; -63
O=C1C2=C(C(=O)c3c(O)cccc31)C(c1ccco1)c1sc(=O)[nH]c1S2 (centres undefined); -4

Prompt: Which measured growth value corresponds to `O=C(CN1C(=O)/C(=C/c2ccccc2)SC1=S)N1CCOCC1` ?
Response: 105

Prompt: Which measured growth value corresponds to `O=[N+]([O-])c1ccc(O)c2ncccc12` ?
Response: 10.3

Prompt: Which measured growth value corresponds to `COC(=O)c1ccc(NC(=S)N2CCc3ccc([N+](=O)[O-])cc3C2)cc1O` ?
Response: 114

Prompt: Which measured growth value corresponds to `Cc1nc(-c2cc3ccccc3oc2=O)ccc1C(=O)/C=C/c1ccc(N2CCOCC2)cc1` ?
Response: 89.7

Prompt: Which measured growth value corresponds to `O=C(NNc1nc2cc(F)ccc2n2c(CN3CC4(COC4)C3)ccc12)c1cnccn1` ?
Response: -7.69

Prompt: Which measured growth value corresponds to `COc1cccc(-c2nn(-c3ccccc3)cc2-c2ccnc(N3CCN(C(=O)Nc4ccc(F)cc4)CC3)c2)c1` ?
Response: 69.5

Prompt: Which measured growth value corresponds to `OC1CCN(CCCOc2c3ccc(Cl)cc3nc3c2oc2ccccc23)CC1` ?
Response: -9.21

Prompt: Which measured growth value corresponds to `O=C(N/N=C/c1ccc([N+](=O)[O-])s1)c1[nH]c2ccc(Br)cc2c1-c1ccccc1` ?
Response: -26.1

Prompt: Which measured growth value corresponds to `Nc1ncc(-c2ccc3ncnc(N4CCc5cc(F)c(Cl)cc54)c3c2)cc1CO` ?
Response: 6.98

Prompt: Which measured growth value corresponds to `Clc1ccc2c(OCCCN3CCOCC3)c3oc4ccccc4c3nc2c1` ?
Response: 10.5

* * *

tested on: UO-31 renal; test: NCI-60 one-dose screen, 48 h (100 = growth as untreated, 0 = no growth, -100 = all killed); conditions: 10 µM unless noted
About 83,000 compounds went through this panel and 20% of them were active in at least one assay; those are over-represented in the sample as a whole.
metric-name: growth (%)
Write the value in % as a bare number.

Solved cases below.
Cc1ccc(-c2nc(C(Cl)Cl)nc3cc(-c4ccccc4)nn23)cc1; 45.3
C#C[C@]1(O)CC[C@H]2[C@@H]3CC=C4c5sc(Nc6ccc(Cl)cn6)nc5CC[C@]4(C)[C@H]3CC[C@@]21C; 40
COc1ccc(NC2=C(Cl)C(=O)C(C)=C(C)C2=O)cc1OC; 90.3

Prompt: Which measured growth value corresponds to `Fc1ccc(-c2nc(C(Cl)Cl)nc3cc(-c4ccccc4)nn23)cc1` ?
Response: 40.9

Prompt: Which measured growth value corresponds to `COc1ccc(/C=C/C(=O)c2ccc(NC(=O)CSc3nnc(-c4ccc5nc(-c6ccc(Cl)cc6)[nH]c5c4)o3)cc2)cc1` ?
Response: 87.5

Prompt: Which measured growth value corresponds to `C/C(=C(/c1ccc(Cl)cc1)c1ccc(OCCN)cc1)c1ccc(C)cc1` ?
Response: 83.2

Prompt: Which measured growth value corresponds to `COc1ccc(-n2c(SCC(=O)Nc3ccc(-c4nc5ccccc5[nH]4)cc3)nc3ccccc3c2=O)cc1` ?
Response: 73.5

Prompt: Which measured growth value corresponds to `COc1cccc(-c2nn(-c3ccccc3)cc2-c2ccnc(N3CCN(C(=O)c4ccccc4)CC3)c2)c1` ?
Response: 72.3

* * *

system: NCI-H460 lung; assay: NCI-60 one-dose screen, 48 h; conditions: 10 µM unless noted
About 83,000 compounds went through this panel and 20% of them were active in at least one assay; those are over-represented in the sample as a whole. Activity calls are given as the source filed them. The calls were made as follows: active = growth percent below 10; inactive = the rest.
Return exactly one item of active, inactive

Past entries and their recorded results:
C#Cc1nc(C2=C(C)C(OC(C)=O)/C(=N/OC(C)=O)C2)cs1 (stereo not given); inactive
COc1cc(/C=C/C(=O)c2ccc(C)cc2)ccc1Oc1nc(NCCO)nc(N2CCOCC2)n1; inactive
C/C(=N/NC(N)=S)c1ccc(Nc2nc(SCC(C)C)nc(-c3ccc(F)cc3)c2C#N)cc1; active

Prompt: Field: outcome | Entry: `N#Cc1nc(-c2ccccc2)oc1S(=O)(=O)N1CCCCC1`
Response: inactive

Prompt: Field: outcome | Entry: `CS(=O)(=O)c1ccc(-c2nc3ccccn3c2-c2nc3ccc([N+](=O)[O-])cc3[nH]2)cc1`
Response: inactive

Prompt: Field: outcome | Entry: COc1cc2nc(-c3ccc(Cl)cc3)cc(OCCCNCC3CCCO3)c2cc1OC (stereo not given)
Response: inactive

Prompt: Field: outcome | Entry: `COc1cccc(N2CCN(c3ncnc4c3[nH]c3ccc(F)cc34)C[C@@H]2C)c1`
Response: active

Prompt: Field: outcome | Entry: `Cc1ccc(-c2nc(C(Cl)Cl)nc3cc(-c4ccccc4)nn23)cc1`
Response: active

Prompt: Field: outcome | Entry: `CC(=O)Nc1cc(F)cc(-c2ccc3[nH]cc(-c4ccccc4)c3n2)c1`
Response: active

Prompt: Field: outcome | Entry: `Clc1ccc(-c2cn3cc(Cc4ccc(Cl)c(Cl)c4)sc3n2)cc1`
Response: inactive

* * *

system: UACC-257 melanoma; assay: NCI-60 one-dose screen, 48 h (100 = growth as untreated, 0 = no growth, -100 = all killed); details: 10 µM unless noted
Compounds without any hit were thinned out: in the full panel of roughly 83,000, 20% have a hit. The source made the active and inactive calls. Rule for the calls: active = growth percent below 10; inactive = the rest.
# maps each entry to its growth

Solved cases below.
CC(=O)Oc1ccccc1C(=O)Nc1ccc(C(=O)/C=C/c2cccs2)cc1; 113% (inactive)
[Cl][Ru].c1ccc(-c2cccc(-c3ccccn3)n2)nc1.c1ccc(-c2ccnc3c2ccc2c(-c4ccccc4)ccnc23)cc1; 26.9% (inactive)
C=CCSc1ccc2c(c1)C(N1CCNCC1)=Nc1ccccc1O2; 83% [8.25 µM] (inactive)
Cc1ccc(C(=O)Nc2cccc(C(F)(F)F)c2)cc1Nc1nc(-c2cnccn2)nc2c1cnn2C; 26.1% (inactive)
O=C(Oc1ccc2ccc(=O)oc2c1)c1ccc(Cl)cc1; 106% (inactive)

Prompt: Which measured growth value corresponds to `COc1ccc(NC(=O)c2sc3nc(-c4cnccn4)cc(-c4cccs4)c3c2N)cc1` ?
Response: 85.1% (inactive)

* * *

test system: UACC-257 melanoma; assay: NCI-60 one-dose screen, 48 h (100 = growth as untreated, 0 = no growth, -100 = all killed); details: 10 µM unless noted
The panel holds about 83,000 compounds, 20% with a hit somewhere; the sample as a whole holds those more often.
# maps each entry to its growth
Write the value in % as a bare number.

Solved cases below.
N#Cc1nc(-c2ccccc2)oc1N1CCC(CO)C1 (stereo not drawn); 105
N#Cc1nc(-c2ccccc2)oc1S(=O)(=O)N1CCN(CCc2ccccn2)CC1; 77
Cn1c(SCC(=O)c2cccs2)nc2ccccc2c1=O; 93.4

Prompt: Which measured growth value corresponds to `O=C(CSc1nccc(=O)[nH]1)Nc1ccc(-c2nc3ccccc3[nH]2)cc1` ?
Response: 108

Prompt: Which measured growth value corresponds to `CN1CCc2c(sc3ncnc(N/N=C/c4ccc(Cl)c(Cl)c4)c23)C1` ?
Response: 92.4

Prompt: Which measured growth value corresponds to `CN(C)CCCOc1c2ccc(Cl)cc2nc2c1oc1ccc(Cl)cc12` ?
Response: 41.3

Hey, just so you know, these numbers are from PubChem BioAssay (NCI).
